Test system: K. pneumoniae ATCC 10031
Experiment: MIC assay, CLSI broth microdilution in CAMH broth
Format: cell-based, Klebsiella pneumoniae
Settings: K. pneumonias ATCC 10031
valueKind: Intrinsic MIC in CAMH

Guide cases for Intrinsic MIC in CAMH, answers given:
                            structurestring                    system              valuekind   result
0      Nc1nc(N)c2ccc3c(ccn3Cc3ccccc3Br)c2n1  K. pneumoniae ATCC 10031  Intrinsic MIC in CAMH  <0.125¤
1  Nc1nc(N)c2ccc3c(ccn3Cc3ccc4ccccc4c3)c2n1  K. pneumoniae ATCC 10031  Intrinsic MIC in CAMH       8¤
2  Nc1nc(N)c2ccc3c(ccn3Cc3ccc(C(F)(F)F)cc3)c2n1  K. pneumoniae ATCC 10031  Intrinsic MIC in CAMH  ≤0.125¤
3  Cc1cc2c3nc(N)nc(N)c3ccc2n1Cc1ccc(-c2ccccc2C#N)cc1  K. pneumoniae ATCC 10031  Intrinsic MIC in CAMH     0.5¤

Lab note: need Intrinsic MIC in CAMH for `N#Cc1cc(F)ccc1-c1ccc(Cn2ccc3c4nc(N)nc(N)c4ccc32)cc1` on K. pneumoniae ATCC 10031, anyone have it?
0.25¤

Another compound to look at: `N#Cc1cccc(Cn2ccc3c4nc(N)nc(N)c4ccc32)c1`
≤0.125¤

====

System: K. pneumoniae ATCC 10031
Experiment: MIC assay, CLSI broth microdilution in CAMH broth
Type: cell-based, Klebsiella pneumoniae
Conditions: K. pneumonias ATCC 10031
We begin with a simple list: items and their reported Intrinsic MIC in CAMH.

compound	Intrinsic MIC in CAMH
Nc1nc(N)c2ccc3c(ccn3Cc3ccc(-c4ccccc4C(F)(F)F)cc3)c2n1	1¤
Nc1nc(N)c2cnc3c(ccn3Cc3cccc(Br)c3)c2n1	1¤
N#Cc1ccccc1-c1ccc(Cn2ccc3c4nc(N)nc(N)c4ccc32)cc1F	<0.125¤
Nc1nc(N)c2ccc3c(ccn3C3C=CCCC3)c2n1 (stereo not shown)	2¤
Nc1nc(N)c2ccc3c(ccn3Cc3cccc(C#Cc4ccccc4)c3)c2n1	32¤
CC[C@H]1OC(=O)[C@H](C)[C@@H](O[C@H]2C[C@@](C)(OC)[C@@H](O)[C@H](C)O2)[C@H](C)[C@@H](O[C@@H]2O[C@H](C)C[C@H](N(C)C)[C@H]2O)[C@](C)(O)C[C@@H](C)CN(C)[C@H](C)[C@@H](O)[C@]1(C)O [AZM, azithromycin, reference compound]	2¤

Lab note: need Intrinsic MIC in CAMH for `Nc1nc(N)c2ccc3c(ccn3Cc3cccc(Br)c3)c2n1` on K. pneumoniae ATCC 10031, anyone have it?
4¤

Another compound to look at: `Nc1nc(N)c2ccc3c(ccn3Cc3cccc(C#Cc4ccccc4C(F)(F)F)c3)c2n1`
>64¤

Another compound to look at: `N#Cc1ccccc1-c1ccc(Cn2ccc3c4nc(N)nc(N)c4ccc32)c(F)c1`
1¤

Another compound to look at: `C#Cc1ccc(Cn2ccc3c4nc(N)nc(N)c4ccc32)cc1`
<0.125¤

Another compound to look at: COc1cc(Cc2cnc(N)nc2N)cc(OC)c1OC [TMP, reference compound]
0.25¤

Another compound to look at: `Nc1nc(N)c2ccc3c(ccn3Cc3cc(Br)ccc3F)c2n1`
<0.125¤

Another compound to look at: `N#Cc1ccccc1-c1ccc(Cn2ccc3c4nc(N)nc(N)c4cnc32)cc1`
0.5¤

Another compound to look at: `Nc1nc(N)c2ccc3c(ccn3Cc3ccc(C(=O)c4ccccc4)cc3)c2n1`
≤0.125¤

Another compound to look at: `Nc1nc(N)c2ccc3c(ccn3CC3CCCCC3)c2n1`
<0.125¤

Another compound to look at: `Nc1nc(N)c2ccc3c(ccn3CC#Cc3ccccc3)c2n1`
<0.125¤
